For each of the compounds below, state its MHC.
System: Erythrocyte
protocol.details: Hemolytic activity against mouse red blood cells incubated for 1 hr
Type: toxicity, cell-based
Numbered stars: 1 amine (or outer) side, 2 acyl side, 3 side chain; on linkers, the order of the positions; unused ones are H or OH. Square brackets hold non-standard residues; d marks the D form. Peptide text beside a SMILES is read from it. * marks the point of attachment. Benzenesulfonyl(4-OMe) = COc1ccc(S(=O)(=O)*)cc1; Benzenesulfonyl(4-F) = O=S(=O)(c1ccc(F)cc1)*; X2 = CC(C)C[C@H](N)CN(CC(=O)[*:2])[*:1]
Numbers only, in µg/mL.

compound	target.or.system	readout.unit	data.value
CC(C)C[C@H](N)CN(CC(=O)N[C@@H](CCCCN)C(=O)N[C@@H](CC(C)C)C(=O)N[C@@H](CC(C)C)C(=O)N[C@@H](CCCCN)C(=O)N[C@@H](CCCCN)C(=O)N[C@@H](CC(C)C)C(=O)N[C@@H](CC(C)C)C(N)=O)S(=O)(=O)c1ccc(F)cc1 ({Benzenesulfonyl(4-F)}-[X2]KLLKKLL-NH2)	Erythrocyte	µg/mL	256

**Q:** Consider the compound COc1ccc(S(=O)(=O)N(CC(=O)N[C@@H](CCCCN)C(=O)N[C@@H](CC(C)C)C(=O)N[C@@H](CC(C)C)C(=O)N[C@@H](CCCCN)C(=O)N[C@@H](CCCCN)C(=O)N[C@@H](CC(C)C)C(=O)N[C@@H](CC(C)C)C(N)=O)C[C@@H](N)CC(C)C)cc1 ({Benzenesulfonyl(4-OMe)}-[X2]KLLKKLL-NH2) and give its measured MHC.
**A:** 256

###

System: Erythrocyte
protocol.details: Hemolytic activity against mouse red blood cells incubated for 1 hr
Format: toxicity, cell-based
Numbered stars: 1 amine (or outer) side, 2 acyl side, 3 side chain; on linkers, the order of the positions; unused ones are H or OH. Square brackets hold non-standard residues; d marks the D form. Peptide text beside a SMILES is read from it. * marks the point of attachment. X21 = CC(C)c1cc(C(C)C)c(S(=O)(=O)N(CC(N)=O)C[C@H](Cc2ccccc2)N*)c(C(C)C)c1; X17 = CC(C)C[C@@H](CN(CC(N)=O)S(=O)(=O)c1ccccc1[N+](=O)[O-])N*; X13 = NC(=O)CN(C[C@H](Cc1ccccc1)N*)S(=O)(=O)c1ccc(Br)cc1; X18 = NC(=O)CN(C[C@H](Cc1ccccc1)N*)S(=O)(=O)c1ccc(Cl)cc1; Benzenesulfonyl(2-NO2) = O=[N+]([O-])c1ccccc1S(=O)(=O)*; X24 = Cc1ccc(S(=O)(=O)N(CC(N)=O)C[C@H](Cc2ccccc2)N*)cc1; X7 = NC(=O)CN(C[C@H](Cc1ccccc1)N*)S(=O)(=O)c1cccc(Cl)c1; Benzenesulfonyl(4-F) = O=S(=O)(c1ccc(F)cc1)*; X5 = CC(C)c1cc(C(C)C)c(S(=O)(=O)*)c(C(C)C)c1; X3 = N[C@@H](Cc1ccccc1)CN(CC(=O)[*:2])[*:1]; X2 = CC(C)C[C@H](N)CN(CC(=O)[*:2])[*:1]; X20 = O=S(=O)(c1ccc(Cl)cc1)*; Tos = Cc1ccc(S(=O)(=O)*)cc1
readout.kind: MHC

molecule	readout.kind	data.value
CC(C)C[C@H](NC(=O)[C@H](CC(C)C)NC(=O)[C@H](CCCCN)NC(=O)[C@H](CCCCN)NC(=O)[C@H](CC(C)C)NC(=O)[C@H](CC(C)C)NC(=O)[C@H](CCCCN)NC(=O)CN(C[C@@H](N)Cc1ccccc1)S(=O)(=O)c1ccc(Cl)cc1)C(N)=O (X20-[X3]KLLKKLL-NH2)	MHC	64 µg/mL
CC(C)C[C@@H](CN(CC(N)=O)S(=O)(=O)c1ccccc1[N+](=O)[O-])NC(=O)[C@H](CCCCN)NC(=O)[C@H](CCCCN)NC(=O)[C@H](CC(C)C)NC(=O)[C@H](CC(C)C)NC(=O)[C@H](CCCCN)NC(=O)[C@H](CC(C)C)NC(=O)[C@@H](N)Cc1ccccc1 (H-FLKLLKK-X17)	MHC	256 µg/mL
CC(C)C[C@H](N)CN(CC(=O)N[C@@H](CCCCN)C(=O)N[C@@H](CC(C)C)C(=O)N[C@@H](CC(C)C)C(=O)N[C@@H](CCCCN)C(=O)N[C@@H](CCCCN)C(=O)N[C@@H](CC(C)C)C(=O)N[C@@H](CC(C)C)C(N)=O)S(=O)(=O)c1ccccc1[N+](=O)[O-] ({Benzenesulfonyl(2-NO2)}-[X2]KLLKKLL-NH2)	MHC	256 µg/mL
Cc1ccc(S(=O)(=O)N(CC(N)=O)C[C@H](Cc2ccccc2)NC(=O)[C@H](CCCCN)NC(=O)[C@H](CCCCN)NC(=O)[C@H](CC(C)C)NC(=O)[C@H](CC(C)C)NC(=O)[C@H](CCCCN)NC(=O)[C@H](CC(C)C)NC(=O)[C@@H](N)Cc2ccccc2)cc1 (H-FLKLLKK-X24)	MHC	256 µg/mL
CC(C)C[C@H](NC(=O)[C@H](CC(C)C)NC(=O)[C@H](CCCCN)NC(=O)[C@H](CCCCN)NC(=O)[C@H](CC(C)C)NC(=O)[C@H](CC(C)C)NC(=O)[C@H](CCCCN)NC(=O)CN(C[C@@H](N)Cc1ccccc1)S(=O)(=O)c1ccc(F)cc1)C(N)=O ({Benzenesulfonyl(4-F)}-[X3]KLLKKLL-NH2)	MHC	256 µg/mL
Cc1ccc(S(=O)(=O)N(CC(=O)N[C@@H](CCCCN)C(=O)N[C@@H](CC(C)C)C(=O)N[C@@H](CC(C)C)C(=O)N[C@@H](CCCCN)C(=O)N[C@@H](CCCCN)C(=O)N[C@@H](CC(C)C)C(=O)N[C@@H](CC(C)C)C(N)=O)C[C@@H](N)Cc2ccccc2)cc1 (Tos-[X3]KLLKKLL-NH2)	MHC	256 µg/mL

Please give MHC for each item listed below.
1. CC(C)C[C@H](NC(=O)[C@H](CC(C)C)NC(=O)[C@H](CCCCN)NC(=O)[C@H](CC(C)C)NC(=O)[C@@H](N)Cc1ccccc1)C(=O)N[C@@H](CCCCN)C(=O)N[C@@H](CCCCN)C(=O)N[C@@H](Cc1ccccc1)CN(CC(N)=O)S(=O)(=O)c1cccc(Cl)c1 (H-FLKLLKK-X7)
2. CC(C)C[C@H](N)CN(CC(=O)N[C@@H](CCCCN)C(=O)N[C@@H](CC(C)C)C(=O)N[C@@H](CC(C)C)C(=O)N[C@@H](CCCCN)C(=O)N[C@@H](CCCCN)C(=O)N[C@@H](CC(C)C)C(=O)N[C@@H](CC(C)C)C(N)=O)S(=O)(=O)c1c(C(C)C)cc(C(C)C)cc1C(C)C (X5-[X2]KLLKKLL-NH2)
3. CC(C)C[C@H](NC(=O)[C@H](CC(C)C)NC(=O)[C@H](CCCCN)NC(=O)[C@H](CCCCN)NC(=O)[C@H](CC(C)C)NC(=O)[C@H](CC(C)C)NC(=O)[C@H](CCCCN)NC(=O)CN(C[C@@H](N)Cc1ccccc1)S(=O)(=O)c1ccccc1[N+](=O)[O-])C(N)=O ({Benzenesulfonyl(2-NO2)}-[X3]KLLKKLL-NH2)
4. CC(C)C[C@H](NC(=O)[C@H](CC(C)C)NC(=O)[C@H](CCCCN)NC(=O)[C@H](CC(C)C)NC(=O)[C@@H](N)Cc1ccccc1)C(=O)N[C@@H](CCCCN)C(=O)N[C@@H](CCCCN)C(=O)N[C@@H](Cc1ccccc1)CN(CC(N)=O)S(=O)(=O)c1ccc(Br)cc1 (H-FLKLLKK-X13)
5. CC(C)C[C@H](NC(=O)[C@H](CC(C)C)NC(=O)[C@H](CCCCN)NC(=O)[C@H](CC(C)C)NC(=O)[C@@H](N)Cc1ccccc1)C(=O)N[C@@H](CCCCN)C(=O)N[C@@H](CCCCN)C(=O)N[C@@H](Cc1ccccc1)CN(CC(N)=O)S(=O)(=O)c1ccc(Cl)cc1 (H-FLKLLKK-X18)

**A:**
1. 256 µg/mL
2. 32 µg/mL
3. 256 µg/mL
4. 256 µg/mL
5. 128 µg/mL

Please give MHC for each item listed below.
1. CC(C)C[C@H](NC(=O)[C@H](CC(C)C)NC(=O)[C@H](CCCCN)NC(=O)[C@H](CC(C)C)NC(=O)[C@@H](N)Cc1ccccc1)C(=O)N[C@@H](CCCCN)C(=O)N[C@@H](CCCCN)C(=O)N[C@@H](Cc1ccccc1)CN(CC(N)=O)S(=O)(=O)c1c(C(C)C)cc(C(C)C)cc1C(C)C (H-FLKLLKK-X21)
2. Cc1ccc(S(=O)(=O)N(CC(=O)N[C@@H](CCCCN)C(=O)N[C@@H](CC(C)C)C(=O)N[C@@H](CC(C)C)C(=O)N[C@@H](CCCCN)C(=O)N[C@@H](CCCCN)C(=O)N[C@@H](CC(C)C)C(=O)N[C@@H](CC(C)C)C(N)=O)C[C@@H](N)CC(C)C)cc1 (Tos-[X2]KLLKKLL-NH2)

**A:**
["32 µg/mL", "32 µg/mL"]
